# Test system: UACC-257 melanoma
# MEASUREMENT_NOTES: NCI tumour cell line growth inhibition, 48 h
Listing of recorded TGI by entry.

COMPOUND | TGI
COC1=CC(=O)c2c(cc(COP(N)(=O)N(CCCl)CCCl)n2C)C1=O (stereo not given) | 14.2 µM
COc1ccc(-c2nsc3c2NC(=O)CC3c2ccc3c(c2)OCCO3)cc1 (stereo not given) | > 100 µM
CCCc1n[nH]c(=O)n1N1C(=O)C=CC1=O | > 100 µM
Cc1cc2c(c3nocc13)C(=O)c1ccccc1C2=O | > 100 µM
Cc1c(N)nc([C@H](CC(N)=O)NC[C@H](N)C(N)=O)nc1C(=O)N[C@H](C(=O)N[C@H](C)[C@@H](O)CC(=O)N[C@H](C(=O)NC(O[C@@H]1O[C@@H](C)[C@@H](N)[C@@H](O)[C@H]1O)C(O)c1nc(-c2nc(C(=O)NCCCCN)cs2)cs1)[C@@H](C)O)[C@@H](O[C@@H]1O[C@@H](CO)[C@@H](O)[C@H](O)[C@@H]1O[C@H]1O[C@H](CO)[C@@H](O)[C@H](OC(N)=O)[C@@H]1O)c1c[nH]cn1 (stereo not given in full) | > 50 µM
CCC[CH2][Sn]([CH2]CCC)([CH2]CCC)[O]C(=O)C(OC(C)=O)c1ccccc1 (stereo not given) | 0.284 µM
Cc1nc(N)sc1C(=O)Nc1ncn[nH]1 | > 100 µM
Cc1cn(CCC(N)C(=O)O)c(=O)[nH]c1=O (stereo not given) | > 100 µM
O=C1C(C(c2ccc([N+](=O)[O-])cc2)N2CCOCC2)=C(O)C(c2ccccc2)N1c1ccccc1 (stereo not given) | > 10 µM
C=C1C(=O)[C@]23C[C@H]1C[C@@H](O)[C@H]2[C@]1(COC3=O)[C@@H](OC(C)=O)CC[C@@](C)(COC(C)=O)[C@H]1C=O | > 50 µM

----------
Measured TGI, listed per entry.
# Test system: DMS 273 small cell lung
# MEASUREMENT_NOTES: NCI tumour cell line growth inhibition, 48 h

COMPOUND | TGI
N=c1n(CC(=O)NC23CC4CC(CC(C4)C2)C3)c2ccccc2n1CC(=O)NC12CC3CC(CC(C3)C1)C2 | 3.35 µM
O=C(Nc1cc(Cl)ccc1Cl)c1cc2cccc(Br)c2oc1=O | > 100 µM
COC1(OC)C2(Cl)C(Cl)=C(Cl)C1(Cl)C1c3ccc(C(C)=O)c4cccc(c34)C12 (stereo unspecified) | 20.9 µM
CCN(CCCl)CCCCCNc1c2ccccc2nc2ccc(OC)cc12 | 1.78 µM
NCCOCn1cc(Cc2cccc(OCc3ccccc3)c2)c(=O)[nH]c1=O | > 100 µM
O=C1C=CC(=O)C2C1Cc1ccccc1C2c1ccccc1 (stereo unspecified) | > 100 µM
CC1(C)OC2CC3COC(=O)C3CC2O1 (stereo unspecified) | > 100 µM
O=C1NC(=O)C(=Cc2c3ccccc3cc3ccccc23)C(=O)N1 | > 100 µM
COc1cc(N)c2[nH]c3c(C)ccc(C)c3c2c1 | > 100 µM
Cc1cc(Br)cc(C)c1NC(=O)C(=O)C(C(=O)c1ccncc1)C1OC(=O)c2ccccc21 (stereo unspecified) | > 100 µM
Cc1cc2c(c3nocc13)C(=O)c1ccccc1C2=O | > 100 µM
O=C(NC12CC3CC(CC(C3)C1)C2)C(=O)c1c[nH]c2ccc(Br)cc12 | 17.6 µM
O=C1OC(c2ccccc2)(c2ccccc2)c2ccc3ccc(F)cc3c21 | > 100 µM
Nc1ncnc2c1sc(=S)n2-c1ccccc1 | > 100 µM
CC(=O)Oc1c2c(c(OC(C)=O)c3c1n(C(C)=O)c1ccccc1n3C(C)=O)n(C(C)=O)c1ccccc1n2C(C)=O | 10.6 µM
CCCCCCCCCCCCCCCCNCC(O)CN (stereo unspecified) | 14.3 µM

----------
# Test system: PC-3 prostate
# MEASUREMENT_NOTES: NCI tumour cell line growth inhibition, 48 h
Overview of reported TGI across a group of compounds:

COMPOUND | TARGET | TGI
c1ccc(C(c2cccc3c2ccc2ccccc23)C(c2ccccc2)c2cccc3c2ccc2ccccc23)cc1 (centres undefined) | PC-3 prostate | > 100 µM
CC(C)(C)c1ccc(O)c(C(c2ccc([N+](=O)[O-])cc2)c2cc(C(C)(C)C)ccc2O)c1 | PC-3 prostate | 3.33 µM
COc1cc(NS(C)(=O)=O)ccc1NCc1cnc2ccc3[nH]cccc3c12 | PC-3 prostate | 42.3 µM
c1cc(CN2CCCNCCNCCCNCC2)ccc1CN1CCCNCCNCCCNCC1 | PC-3 prostate | > 100 µM
COc1ccc(OC)c(NC2=NCCO2)c1 | PC-3 prostate | > 100 µM
CCCCC[C@H]1CC=C2C(=O)C=C[C@@H]2CC=CCCCC(=O)O[C@@H](CCCCC)CC=C2C(=O)C=C[C@@H]2CC=CCCCC(=O)O[C@@H](CCCCC)CC=C2C(=O)C=C[C@@H]2CC=CCCCC(=O)O1 | PC-3 prostate | 1.5 µM
O=C1CSC(c2ccc(-c3nc4ccccc4[nH]3)cc2)=N1 | PC-3 prostate | > 50 µM
CC(CN1CC(=O)NC(=O)C1)N1CC(=O)NC(=O)C1 (centres undefined) | PC-3 prostate | > 750 µM
COC1(OC)C2(Cl)C(Cl)=C(Cl)C1(Cl)C1c3ccc(C(C)=O)c4cccc(c34)C12 (centres undefined) | PC-3 prostate | > 100 µM

----------
# Tested on: MDA-N
# MEASUREMENT_NOTES: NCI tumour cell line growth inhibition, 48 h
Reported TGI values for the following molecules.
READOUT_TYPE: TGI

MOLECULE | RECORDED_RESULT
COC(=O)CCCC1(CCCC(=O)OC)CCCCCCCCC(CCCC(=O)OC)(CCCC(=O)OC)C(=O)C1=O | > 100 µM
CCOc1cc(C(=O)O)c2c(ccc3ccc(OC)c(OC)c32)c1OC | > 100 µM
COC(=O)[C@H]1[C@@H](O)[C@@]2(O)c3c(OC)cc(OC)cc3O[C@@]2(c2ccc3c(c2)OCO3)[C@@H]1c1ccccc1 | 2.34 µM
NC(=S)Nc1ccc2c(c1)oc1ccccc12 | > 100 µM
COc1ccc(C(=O)c2c(-c3ccccc3NC(=O)C(F)(F)F)[nH]c3ccccc23)cc1 | 29.3 µM
CCOC(=O)C1(C#N)C2(C#N)C(N)=NC(ON=C(C)C)(ON=C(C)C)C12C#N (stereo unspecified) | > 100 µM
COC(=O)[C@@H]1[C@H](O)CCC2=C(CC(=O)c3ccoc3)[C@H](C)CC[C@]21C | > 50 µM
CN(C)C(=S)/N=c1\ssc(=S)n1Cc1cccs1 | 2.85 µM
Cn1c(=O)c2c(nc3n2CCC(=O)N3CCCCl)n(C)c1=O | > 100 µM
COc1cc(S(=O)(=O)Nc2ccc(-c3csc(N4C(=O)C(Cl)C4c4cccc(Oc5ccccc5)c4)n3)cc2)ccc1Cl (stereo unspecified) | 64.7 µM
CCCCOc1c(C(=O)O)cc(Br)cc1C(=O)O | > 100 µM
Nc1nc2c(c(-c3ccccc3Cl)n1)COC/C2=C\c1ccccc1Cl | 24.1 µM
N#C/C=c1/c2ccccc2n2nc3ccccc3c12 | > 100 µM
CC(C)NCC(O)c1ccc(O)c2ncccc12 (stereo unspecified) | > 100 µM
Cc1c(NC(=O)CCl)c(=O)oc2c(C)c3occc(=O)c3cc12 | 31 µM
Cc1ccc(/C(O)=C/c2nc3cccnc3[nH]c2=O)cc1 | > 100 µM

----------
# Tested on: SK-MEL-2 melanoma
# MEASUREMENT_NOTES: NCI tumour cell line growth inhibition, 48 h
READOUT_TYPE: log10 TGI (log10 of the value in µM)

COMPOUND | log10 TGI
C=C(C)[C@@H]1CC[C@]2(COCCCNCCCN)CC[C@]3(C)[C@H](CC[C@@H]4[C@@]5(C)CC[C@H](OCCCN)C(C)(C)[C@@H]5CC[C@]43C)[C@@H]12 | 1.14
c1ccc2cc(Cn3cc[n+](Cc4ccc5ccccc5c4)c3)ccc2c1 | 0.64
COC(=O)CCCC1(CCCC(=O)OC)CCCCCCCCC(CCCC(=O)OC)(CCCC(=O)OC)C(=O)C1=O | 1.85
CCn1c(-c2c(Cl)cc(O)cc2Cl)cc2c(Cl)cc(O)cc21 | 1.23
Cn1cnc([N+](=O)[O-])c1Sc1nnnn1C | 1.57
Cn1cc(-c2nc(-c3c[nH]c4ccncc34)cs2)c2ccccc21 | 0.55
COc1cccc2c1C(=O)c1c(O)c3c(c(O)c1C2=O)C[C@@](O)(C(C)=O)C[C@@H]3OC1CC([N+]([O-])(Cc2ccccc2)Cc2ccccc2)C(O)C(C)O1 (some centres not stated) | 0.54

----------
# System: RPMI-8226 leukemia
# MEASUREMENT_NOTES: NCI tumour cell line growth inhibition, 48 h
Where a SMILES comes first, the peptide text is derived from it. The star is where a group is joined. Boc = CC(C)(C)OC(=O)*
READOUT_TYPE: TGI

COMPOUND | TARGET | RECORDED_RESULT
CC(C)NCC(O)c1ccc(O)c2ncccc12 (stereo not given) | RPMI-8226 leukemia | > 100 µM
O=C(NC12CC3CC(CC(C3)C1)C2)C(=O)c1c[nH]c2ccc(Br)cc12 | RPMI-8226 leukemia | > 100 µM
O=c1c(Nc2ccccc2)cn(CCOc2ccc(Cl)cc2)c(=O)n1CCOc1ccc(Cl)cc1 | RPMI-8226 leukemia | > 100 µM
Cc1nc2ccccc2c(=O)n1NC(=O)c1ccccc1[N+](=O)[O-] | RPMI-8226 leukemia | > 100 µM
COc1ccc(-c2nsc3c2NC(=O)CC3c2ccc3c(c2)OCCO3)cc1 (stereo not given) | RPMI-8226 leukemia | 42.4 µM
CC(C)(C)c1cc(C(=O)C2Cc3ccccc3C(=O)O2)cc(C(C)(C)C)c1O (stereo not given) | RPMI-8226 leukemia | 42.1 µM
O=C(O)C1CCN(Cc2oc(CO)cc(=O)c2O)C1 (stereo not given) | RPMI-8226 leukemia | > 100 µM
Cc1ccc(S(=O)(=O)/N=C2/N(C)CCCS2(=O)=O)cc1 | RPMI-8226 leukemia | > 100 µM
CSCCC(NC(=O)C(CC(C)C)NC(=O)C1CCCN1C(=O)C(Cc1ccccc1)NC(=O)C(Cc1ccccc1)NC(=O)C(CCC(=O)O)NC(=O)OC(C)(C)C)C(N)=O (stereo not given) (Boc-EFFPLM-NH2; configuration not given here) | RPMI-8226 leukemia | > 100 µM
COc1cccc(OC(=O)c2ccc(C(F)(F)F)nc2Nc2c(C)cccc2Cl)c1 | RPMI-8226 leukemia | > 100 µM
